Each record here notes measured Inhibitory activity to enkephalinase ID50.
TARGET OR TEST SYSTEM: enkephalinase (Rattus norvegicus)
Construct: homogenizing corpus striatum of rat brain and by partial purification of the brain homogenate; from tissue; host or cells: corpus striatum of rat brain
Sequence (P07861 2-750 limits assumed): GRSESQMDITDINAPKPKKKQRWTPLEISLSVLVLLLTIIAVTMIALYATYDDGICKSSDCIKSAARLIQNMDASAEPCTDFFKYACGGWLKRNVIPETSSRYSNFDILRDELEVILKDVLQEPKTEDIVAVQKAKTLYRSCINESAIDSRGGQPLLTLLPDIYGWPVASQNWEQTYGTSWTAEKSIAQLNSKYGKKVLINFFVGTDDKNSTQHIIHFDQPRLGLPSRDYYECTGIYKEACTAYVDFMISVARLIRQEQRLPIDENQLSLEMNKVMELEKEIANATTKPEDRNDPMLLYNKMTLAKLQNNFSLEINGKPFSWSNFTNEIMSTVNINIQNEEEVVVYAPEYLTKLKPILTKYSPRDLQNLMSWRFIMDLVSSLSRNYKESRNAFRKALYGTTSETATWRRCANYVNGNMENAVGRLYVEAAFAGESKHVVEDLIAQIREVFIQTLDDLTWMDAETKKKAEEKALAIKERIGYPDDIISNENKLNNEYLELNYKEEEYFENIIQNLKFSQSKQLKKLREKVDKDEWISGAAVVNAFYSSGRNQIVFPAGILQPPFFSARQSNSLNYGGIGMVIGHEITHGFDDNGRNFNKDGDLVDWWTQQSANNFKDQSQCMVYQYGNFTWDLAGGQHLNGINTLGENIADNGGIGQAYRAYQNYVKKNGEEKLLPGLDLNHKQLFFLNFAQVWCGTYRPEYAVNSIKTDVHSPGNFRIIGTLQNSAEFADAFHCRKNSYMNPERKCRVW
EXPERIMENT: Inhibitory activity against enkephalinase (Test 1)
Format: biochemical
REPORTED CONDITIONS: partially purified enkephalinase from rat brain corpus striatum; substrate methionine-enkephaline; 37° C., 1 hour; HPLC of Tyr-Gly-Gly
Answer format: numeric, milimol implied, no suffix.

N=C(N)NCCC[C@H](NC(=O)[C@H](O)[C@H](N)Cc1ccccc1)C(=O)O	0.063
N[C@H](Cc1ccccc1)[C@H](O)C(=O)N[C@H](CCC(=O)O)C(=O)O	30.86
CC(C)C[C@H](NC(=O)[C@@H](O)[C@H](N)Cc1ccc(O)cc1)C(=O)O	0.37
CC(C)C[C@H](NC(=O)[C@H](O)[C@H](N)Cc1ccc(O)cc1)C(=O)O	20.68
NC(=O)C[C@H](NC(=O)[C@H](O)[C@H](N)Cc1ccccc1)C(=O)O	3.12
CC(C)C[C@H](NC(=O)[C@@H](O)[C@H](N)Cc1ccccc1)C(=O)O	0.62
CC(C)C[C@H](NC(=O)[C@@H](O)[C@H](N)Cc1ccccc1)C(=O)N[C@H](CC(C)C)C(=O)O	0.95

Moving on to another compound below.
# Inhibitory activity to enkephalinase ID50 (compound: CSCC[C@H](NC(=O)[C@H](O)[C@H](N)Cc1ccccc1)C(=O)O ) is 2.54
